Attribution: patent US6423711B1

Where a name gives a salt, the structure may show the parent alone.
Provide the recorded melting point for the entries that follow.

# annotated cases, reported melting point shown
{"columns": ["Compound", "Data value"],
 "data": [
  ["CCCNC(=O)C1CCN(c2cc(-c3ccccc3)nc3ccsc23)CC1.Cl", "159 to 160 °C (dec.)"],
  ["Cl.O=C(NCc1cccs1)C1CCN(c2cc(-c3ccccc3)nc3ccsc23)CC1", "> 230 °C (dec.)"]
]}

For every item in the list below, what is its measured melting point?
1. COc1cccc(-c2cc(N3CCC(C(N)=O)CC3)c3sccc3n2)c1.Cl
2. NC(=O)C1CCN(c2cc(-c3ccc(F)cc3)nc3ccsc23)CC1 (as salt: hydrochloride)
3. Cl.O=C(NCc1ccc(F)cc1)C1CCN(c2cc(-c3ccccc3)nc3ccsc23)CC1

Data returned:
1: 133 to 135 °C (dec.); 2: > 303 °C (dec.); 3: 190 to 192 °C (dec.)
